B1: LINE1-mini (parent)
chain: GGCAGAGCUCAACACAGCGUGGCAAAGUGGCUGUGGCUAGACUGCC

variants of: B1; assay: self-cleavage, relative activity (ratio to wild type); higher = more cleavage; in vitro, sequencing; the parent is a self-cleaving ribozyme
experimental-readout: self-cleavage

mutation-string: C42A U43C
observed-value: 0.09
//
mutation-string: C18A A26G
observed-value: 0.57
//
mutation-string: C10U U43C
observed-value: 0.03
//
mutation-string: C10U C23A
observed-value: 0.43
